Measured values drawn from patent US6914045B2 for this set.

Collected MIC Staphylococcus aureus (GC 4544) values appear next to each entry.
System: Staphylococcus sp.
Assay: in vitro antibacterial evaluation, MIC by broth dilution
Type: cell-based
Conditions: broth dilution, 18 hours at 35° C.; strain GC 4544
Enter your answer as a number in µg/mL; do not include the unit.

For reference, reported MIC Staphylococcus aureus (GC 4544) for CC(c1ccccc1)C1NC(=O)CNC(=O)C(CO)NC(=O)C(C(O)C2CNC(=N)N2C2OC(CO)C(O)C(O)C2O)NC(=O)C(C(O)C2CNC(=N)N2)NC(=O)C(Cc2ccc(OC3OC(CO)C(OC4OC5COC(c6cccs6)OC5C(O)C4O)C(O)C3O)cc2)NC1=O (stereo not shown) [Example 132] stands at 4

Briefly, MIC Staphylococcus aureus (GC 4544) measured for CC(c1ccccc1)C1NC(=O)CNC(=O)C(CO)NC(=O)C(C(O)C2CNC(=N)N2C2OC(CO)C(O)C(O)C2O)NC(=O)C(C(O)C2CNC(=N)N2)NC(=O)C(Cc2ccc(OC3OC(CO)C(OC4OC(COCC=Cc5ccccc5)C(O)C(O)C4O)C(O)C3O)cc2)NC1=O (stereo not shown) [Example 242] : 8

MIC Staphylococcus aureus (GC 4544) measured on CC(C)=CCCC(C)CC1OCC2OC(OC3C(CO)OC(Oc4ccc(CC5NC(=O)C(C(C)c6ccccc6)NC(=O)CNC(=O)C(CO)NC(=O)C(C(O)C6CNC(=N)N6C6OC(CO)C(O)C(O)C6O)NC(=O)C(C(O)C6CNC(=N)N6)NC5=O)cc4)C(O)C3O)C(O)C(O)C2O1 (stereo not shown) [Example 126] = 8

----------
Test system: Staphylococcus sp.
Experiment: in vitro antibacterial evaluation, MIC by broth dilution
Assay type: cell-based
Details: broth dilution, 18 hours at 35° C.; strain SMITH GC 4543
Numbered stars: 1 amine (or outer) side, 2 acyl side, 3 side chain; on linkers, the order of the positions; unused ones are H or OH. Square brackets hold non-standard residues; d marks the D form. Peptide text beside a SMILES is read from it. * marks the point of attachment. ξ: configuration not given here. X1 = N=C1NCC(C(O)C(N[*:1])C(=O)[*:2])N1C1OC(CO)C(O)C(O)C1O; ξEnduracididine(βξ-OH,4'ξ) = N=C1NCC(C(O)C(N)C(=O)O)N1; X2 = OCC1OC(OC2C(CO)OC(*)C(O)C2O)C(O)C(O)C1O; Cha = N[CH](CC1CCCCC1)C(=O)O
Field: label. Allowed values: YES (MIC Staphylococcus aureus-SMITH (GC 4543) < 20 µg/mL) or NO (MIC Staphylococcus aureus-SMITH (GC 4543) >= 20 µg/mL).

Solved entries:
molecule	group
COC1CCC2(C)C(CCC3C2CCC2(C)C(C(C)CCC4OCC5OC(OC6C(CO)OC(Oc7ccc(CC8NC(=O)C(C(C)c9ccccc9)NC(=O)CNC(=O)C(CO)NC(=O)C(C(O)C9CNC(=N)N9C9OC(CO)C(O)C(O)C9O)NC(=O)C(C(O)C9CNC(=N)N9)NC8=O)cc7)C(O)C6O)C(O)C(O)C5O4)CCC32)C1 (centres unmarked)	NO
N=C1NCC(C(O)C2NC(=O)C(Cc3ccc(OC4OC(CO)C(OC5OC(CO)C(O)C(O)C5O)C(O)C4O)cc3)NC(=O)C(CC3CCCCC3)NC(=O)CNC(=O)C(CO)NC(=O)C(C(O)C3CNC(=N)N3C3OC(CO)C(O)C(O)C3O)NC2=O)N1 (stereo not drawn) [Example 263] (cyclo(G[Cha]Y(X2)[ξEnduracididine(βξ-OH,4'ξ)][X1]S); configuration not given here)	NO

Consider the molecule CC(C)=CCOc1cccc(C2OCC3OC(OC4C(CO)OC(Oc5ccc(CC6NC(=O)C(C(C)c7ccccc7)NC(=O)CNC(=O)C(CO)NC(=O)C(C(O)C7CNC(=N)N7C7OC(CO)C(O)C(O)C7O)NC(=O)C(C(O)C7CNC(=N)N7)NC6=O)cc5)C(O)C4O)C(O)C(O)C3O2)c1 (centres unmarked) . Is its MIC Staphylococcus aureus-SMITH (GC 4543) strictly less than 20 µg/mL?
YES

Quick check: MIC Staphylococcus aureus-SMITH (GC 4543) of CC(c1ccccc1)C1NC(=O)CNC(=O)C(CO)NC(=O)C(C(O)C2CNC(=N)N2C2OC(CO)C(O)C(O)C2O)NC(=O)C(C(O)C2CNC(=N)N2)NC(=O)C(Cc2ccc(OC3OC(CO)C(OC4OC5COC(c6ccc7ccccc7c6)OC5C(O)C4O)C(O)C3O)cc2)NC1=O (centres unmarked) under 20 µg/mL?
YES

Please let me know if CC(c1ccccc1)C1NC(=O)CNC(=O)C(CO)NC(=O)C(C(O)C2CNC(=N)N2C2OC(CO)C(O)C(O)C2O)NC(=O)C(C(O)C2CNC(=N)N2)NC(=O)C(Cc2ccc(OC3OC(CO)C(OC4OC(CO)C(O)C5OC(c6ccc(-c7ccsc7)cc6)OC45)C(O)C3O)cc2)NC1=O (centres unmarked) [Example 164a] shows MIC Staphylococcus aureus-SMITH (GC 4543) below 20 µg/mL.
YES

# check: MIC Staphylococcus aureus-SMITH (GC 4543) < 20 µg/mL for CC(c1ccccc1)C1NC(=O)CNC(=O)C(CO)NC(=O)C(C(O)C2CNC(=N)N2C2OC(CO)C(O)C(O)C2O)NC(=O)C(C(O)C2CNC(=N)N2)NC(=O)C(Cc2ccc(OC3OC(CO)C(OC4OC5COC(c6cc7c(cc6Cl)OCO7)OC5C(O)C4O)C(O)C3O)cc2)NC1=O (centres unmarked)
YES

Below 20 µg/mL on MIC Staphylococcus aureus-SMITH (GC 4543)? Entry COc1cc(OC)cc(C2OC3C(OC4C(CO)OC(Oc5ccc(CC6NC(=O)C(C(C)c7ccccc7)NC(=O)CNC(=O)C(CO)NC(=O)C(C(O)C7CNC(=N)N7C7OC(CO)C(O)C(O)C7O)NC(=O)C(C(O)C7CNC(=N)N7)NC6=O)cc5)C(O)C4O)OC(CO)C(O)C3O2)c1 (centres unmarked) [Example 150a]
YES

Below 20 µg/mL on MIC Staphylococcus aureus-SMITH (GC 4543)? Entry CC(c1ccccc1)C1NC(=O)CNC(=O)C(CO)NC(=O)C(C(O)C2CNC(=N)N2C2OC(CO)C(O)C(O)C2O)NC(=O)C(C(O)C2CNC(=N)N2)NC(=O)C(Cc2ccc(OC3OC(CO)C(OC4OC5COC(c6cccc(O)c6)OC5C(O)C4O)C(O)C3O)cc2)NC1=O (centres unmarked)
YES

Criterion: MIC Staphylococcus aureus-SMITH (GC 4543) strictly below 20 µg/mL. Is it met by CC=C(C)C(=O)OC1C(CO)OC(OC2C(CO)OC(Oc3ccc(CC4NC(=O)C(C(C)c5ccccc5)NC(=O)CNC(=O)C(CO)NC(=O)C(C(O)C5CNC(=N)N5C5OC(CO)C(O)C(O)C5O)NC(=O)C(C(O)C5CNC(=N)N5)NC4=O)cc3)C(O)C2O)C(O)C1O (centres unmarked) [Example 278b] ?
YES

hey, is MIC Staphylococcus aureus-SMITH (GC 4543) for N=C1NCC(C(O)C2NC(=O)C(Cc3ccc(OC4OC(CO)C(OC5OC(CO)C(O)C(O)C5O)C(O)C4O)cc3)NC(=O)C(Cc3ccccc3)NC(=O)CNC(=O)C(CO)NC(=O)C(C(O)C3CNC(=N)N3C3OC(CO)C(O)C(O)C3O)NC2=O)N1 (stereo not drawn) [Example 282] (cyclo(GFY(X2)[ξEnduracididine(βξ-OH,4'ξ)][X1]S); configuration not given here) lower than 20 µg/mL or not?
NO

Below 20 µg/mL on MIC Staphylococcus aureus-SMITH (GC 4543)? Entry CC(C)CCC(=O)OC1C(OC2C(CO)OC(Oc3ccc(CC4NC(=O)C(C(C)c5ccccc5)NC(=O)CNC(=O)C(CO)NC(=O)C(C(O)C5CNC(=N)N5C5OC(CO)C(O)C(O)C5O)NC(=O)C(C(O)C5CNC(=N)N5)NC4=O)cc3)C(O)C2O)OC(CO)C(O)C1O (centres unmarked) [Example 270a]
YES

----------
// MIC Enterococcus faecalis (GC 4554) lookup, one value per entry
System: Enterococcus sp.
Assay: in vitro antibacterial evaluation, MIC by broth dilution
Format: cell-based
Details: Enterococcus faecalis (GC 4554); broth dilution, 18 hours at 35° C.
State just the number; it will be interpreted in µg/mL.

These recorded examples may help you get a feel for the data.
compound	MIC Enterococcus faecalis (GC 4554) [µg/mL]
CC(c1ccccc1)C1NC(=O)CNC(=O)C(CO)NC(=O)C(C(O)C2CNC(=N)N2C2OC(CO)C(O)C(O)C2O)NC(=O)C(C(O)C2CNC(=N)N2)NC(=O)C(Cc2ccc(OC3OC(CO)C(OC4OC5COC(c6ccc7c(c6)OCCO7)OC5C(O)C4O)C(O)C3O)cc2)NC1=O (stereo not shown) [Example 149]	8
CC(c1ccccc1)C1NC(=O)CNC(=O)C(CO)NC(=O)C(C(O)C2CNC(=N)N2C2OC(CO)C(O)C(O)C2O)NC(=O)C(C(O)C2CNC(=N)N2)NC(=O)C(Cc2ccc(OC3OC(CO)C(OC4OC5COC(CC6CCN(C(=O)OCc7ccccc7)CC6)OC5C(O)C4O)C(O)C3O)cc2)NC1=O (stereo not shown) [Example 113]	2

Consider now this further compound.
Item CC(C)=CCCC1OCC2OC(OC3C(CO)OC(Oc4ccc(CC5NC(=O)C(C(C)c6ccccc6)NC(=O)CNC(=O)C(CO)NC(=O)C(C(O)C6CNC(=N)N6C6OC(CO)C(O)C(O)C6O)NC(=O)C(C(O)C6CNC(=N)N6)NC5=O)cc4)C(O)C3O)C(O)C(O)C2O1 (stereo not shown) [Example 123] was tested on Enterococcus sp.; the reported MIC Enterococcus faecalis (GC 4554) is 16
